Measured values drawn from the METLIN SMRT retention time set (Domingo-Almenara et al. 2019) for this set.

test: gradient 5% acetonitrile 3 min, to 50% in 2 min, to 85% in 15 min, held 3 min, 100 µL/min; details: column: Zorbax Extend-C18 2.1 x 50 mm; eluents: water / acetonitrile, 0.1% formic acid
# RP-LC retention time annotations

As a guide, the following entries are already answered.
COc1ccc(-c2noc(C(C)NC(C)=O)n2)cc1 (stereo not drawn) | 680 s
CCOc1ccccc1NC(=O)C1CCCN1S(=O)(=O)c1cc2c(cc1Cl)NC(=O)CO2 (stereo not drawn) | 880 s

In the following, a different compound is considered.
[Q] Please report RP-LC retention time for the following compound: CCN(CC)Cc1nc(-c2ccc(N3CCSCC3)nc2)no1
[A] 632 s
